TEST SYSTEM: human catalytic domain HDAC4 protein (amino acids 648-1032) (Homo sapiens (Human), UniProt P56524)
Sequence (P56524 648-1032): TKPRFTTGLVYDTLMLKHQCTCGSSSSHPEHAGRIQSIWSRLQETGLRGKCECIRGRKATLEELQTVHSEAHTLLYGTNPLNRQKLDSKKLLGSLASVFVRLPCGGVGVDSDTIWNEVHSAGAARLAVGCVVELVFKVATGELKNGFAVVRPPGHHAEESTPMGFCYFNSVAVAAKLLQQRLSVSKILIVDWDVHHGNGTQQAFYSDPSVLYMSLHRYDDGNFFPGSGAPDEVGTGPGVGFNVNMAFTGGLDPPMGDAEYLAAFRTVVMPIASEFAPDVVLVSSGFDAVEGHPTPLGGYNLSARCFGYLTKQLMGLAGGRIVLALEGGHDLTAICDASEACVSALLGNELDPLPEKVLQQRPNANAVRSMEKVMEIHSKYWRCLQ
RECORDED ENDPOINT: IC50 (nM)
Response body: numeric value in nM, unit text excluded.

[Q] Consider the compound shown here: Cc1c(F)cccc1[C@]1(C(=O)NO)CC[C@H](Oc2cncc(F)c2)C1 What is its recorded IC50?
[A] 160

[Q] What value of IC50 has been recorded for this entry: Cc1c(F)cccc1[C@]1(C(=O)NO)CC[C@@H](c2ccc3ncn(C)c3c2)C1 (relative stereo)
[A] 110

[Q] Return reported IC50; argument: Cc1c(F)cccc1C1(C(=O)NO)CCCC1
[A] 270

[Q] Tell me the measured IC50 of Cc1cc(F)ccc1C1(C(=O)NO)CCCC1 , please.
[A] 570

[Q] Using the record for Cc1c(F)cccc1[C@]1(C(=O)NO)CC[C@H](c2cncc(F)c2)C1 (stereo in doubt) , report its IC50.
[A] 150

[Q] Fill in the blank: the reported IC50 of Cc1c(F)cccc1[C@]1(C(=O)NO)CC[C@@H](Oc2ccccc2)C1 is ____.
[A] 160

[Q] Please give the measured IC50 for this compound: Cc1c(F)cccc1[C@@]1(C(=O)NO)CC[C@@H](c2cncc(F)c2)C1 (stereo in doubt)
[A] 3600

[Q] Recorded IC50 of Cc1c(F)cccc1[C@]1(C(=O)NO)CC[C@H](Oc2ccc3cnn(C)c3c2)C1 , please.
[A] 140

---

Form: system (human catalytic domain HDAC4 protein (amino acids 648-1032) (Homo sapiens (Human))), quantity (log10 of IC50), values below.
Form field - Quantity: IC50; Unit: nM; Scale: log10

[Q] Would you kindly share the measured log10 of IC50 for Cc1c(F)cccc1[C@]1(C(=O)NO)CC[C@@H](c2cncc(F)c2)CC1 ?
[A] 2.82

[Q] What value of measured log10 of IC50 is listed for O=C(NO)C1(c2cccc3ccsc23)CCCC1 ?
[A] 2.79

[Q] Could you share which log10 of IC50 value was measured for Cc1c(F)cccc1[C@]1(C(=O)NO)CC[C@H](N2CCOCC2)C1 (relative stereo) ?
[A] 3.40

[Q] Which log10 of IC50 value is on record for Cc1c(F)cccc1[C@]1(C(=O)NO)CC[C@@H](c2ccc3c(c2)ncn3C)C1 (relative stereo) ?
[A] 1.95

[Q] # input compound: Cc1c(F)cccc1[C@]1(C(=O)NO)CC[C@@H](Oc2ccc3cnn(C)c3c2)C1 ; wanted: its log10 of IC50
[A] 2.46

[Q] Quick one: log10 of IC50 of Cc1c(F)cccc1[C@]1(C(=O)NO)CC[C@H](c2ccc3ncccc3c2)C1 (relative stereo) ?
[A] 1.68

[Q] Find the recorded log10 of IC50 belonging to Cc1c(F)cccc1[C@]1(C(=O)NO)CC[C@@H](OCc2ccc(F)cc2)CC1 and report it.
[A] 4.15

[Q] Need log10 of IC50 of Cc1ccccc1C1(C(=O)NO)CCCC1 , thanks.
[A] 2.86

[Q] Give the measured log10 of IC50 of COc1ncc([C@H]2CC[C@@](C(=O)NO)(c3cccc(F)c3C)C2)cc1F (relative stereo) .
[A] 2.52

[Q] For the compound O=C(NO)[C@]1(c2ccccc2)CC[C@@H](c2cncc(F)c2)CC1 , what log10 of IC50 is on record?
[A] 3.81

[Q] Bench note: what log10 of IC50 did Cc1c(F)cccc1[C@]1(C(=O)NO)CC[C@@H](c2ccn3ccnc3c2)C1 (relative stereo) show?
[A] 1.99

[Q] Need log10 of IC50 of Cc1c(F)cccc1[C@]1(C(=O)NO)CC[C@@H](c2ccc3ncccc3c2)C1 (relative stereo) , thanks.
[A] 1.79

[Q] # lookup: log10 of IC50 of Cc1c(F)cccc1[C@]1(C(=O)NO)CC[C@@H](c2ccnn2C)C1 (relative stereo)
[A] 2.23

[Q] // lookup log10 of IC50 for Cc1c(F)cccc1[C@]1(C(=O)NO)CC[C@@H](c2cncnc2)C1 (relative stereo)
[A] 2.46

[Q] For the compound O=C(NO)[C@@]1(c2ccccc2)CC[C@@H](c2cncc(F)c2)C1 , what log10 of IC50 is on record?
[A] 3.28

[Q] Value lookup for log10 of IC50; key = O=C(NO)C1(c2c(F)cccc2Cl)CCCC1
[A] 3.40

[Q] Would you kindly share the measured log10 of IC50 for Cc1c(F)cccc1[C@]1(C(=O)NO)CC[C@@H](c2ccc3cn[nH]c3c2F)C1 (relative stereo) ?
[A] 1.86

[Q] Query (compound): Cc1c(F)cccc1[C@]1(C(=O)NO)CC[C@H](c2cncnc2)C1 (relative stereo) ; field requested: log10 of IC50
[A] 2.59

[Q] So what's the measured log10 of IC50 for this one? O=C(NO)C1(c2ccccc2F)CCCC1
[A] 3.66

[Q] // lookup log10 of IC50 for Cc1c(F)cccc1[C@]1(C(=O)NO)CC[C@H](c2nc3ccccc3s2)C1 (relative stereo)
[A] 1.90

[Q] // returns reported log10 of IC50 for input Cc1c(F)cccc1[C@]1(C(=O)NO)CC[C@H](c2ccc3cnn(C(F)F)c3c2)C1 (relative stereo)
[A] 1.66

[Q] Request the reported log10 of IC50 associated with O=C(NO)C1(c2ccc(Cl)cc2)CCCC1
[A] 4.38

[Q] Return reported log10 of IC50; argument: Cc1c(F)cccc1[C@]1(C(=O)NO)CC[C@@H](c2cccc3cnn(C)c23)C1 (relative stereo)
[A] 2.56

[Q] What value of measured log10 of IC50 is listed for Cc1c(F)cccc1[C@]1(C(=O)NO)CC[C@@H](c2ccc3cnn(C)c3c2)C1 (relative stereo) ?
[A] 2.15

[Q] State the recorded log10 of IC50 for this entry: Cc1c(Cl)cccc1C1(C(=O)NO)CCCC1
[A] 2.45

[Q] Given the entry Cc1c(F)cccc1[C@]1(C(=O)NO)CC[C@H](c2ccc3c(F)nn(C)c3c2)C1 (relative stereo) , report its measured log10 of IC50.
[A] 2.51

[Q] What value of log10 of IC50 has been reported for the following compound? Cc1cccc(Cl)c1C1(C(=O)NO)CCCC1
[A] 2.96

[Q] Give its log10 of IC50 value. Item: Cc1c(F)cccc1[C@]1(C(=O)NO)CC[C@@H](c2cnc(OCCN3CCCC3)c(F)c2)C1 (relative stereo)
[A] 2.51

[Q] Given Cc1c(F)cccc1[C@]1(C(=O)NO)CC[C@H](c2cncc(F)c2)CC1 , state its recorded log10 of IC50.
[A] 3.61

[Q] // query log10 of IC50 value for entry Cc1c(F)cccc1C1(C(=O)NO)CCC2(CCOCC2)C1 (racemic)
[A] 3.15

Data credit: patent US9783488B2
